- assay target: EPHB2 (UniProt P29323)
- Sequence (P29323 whole entry, looked up): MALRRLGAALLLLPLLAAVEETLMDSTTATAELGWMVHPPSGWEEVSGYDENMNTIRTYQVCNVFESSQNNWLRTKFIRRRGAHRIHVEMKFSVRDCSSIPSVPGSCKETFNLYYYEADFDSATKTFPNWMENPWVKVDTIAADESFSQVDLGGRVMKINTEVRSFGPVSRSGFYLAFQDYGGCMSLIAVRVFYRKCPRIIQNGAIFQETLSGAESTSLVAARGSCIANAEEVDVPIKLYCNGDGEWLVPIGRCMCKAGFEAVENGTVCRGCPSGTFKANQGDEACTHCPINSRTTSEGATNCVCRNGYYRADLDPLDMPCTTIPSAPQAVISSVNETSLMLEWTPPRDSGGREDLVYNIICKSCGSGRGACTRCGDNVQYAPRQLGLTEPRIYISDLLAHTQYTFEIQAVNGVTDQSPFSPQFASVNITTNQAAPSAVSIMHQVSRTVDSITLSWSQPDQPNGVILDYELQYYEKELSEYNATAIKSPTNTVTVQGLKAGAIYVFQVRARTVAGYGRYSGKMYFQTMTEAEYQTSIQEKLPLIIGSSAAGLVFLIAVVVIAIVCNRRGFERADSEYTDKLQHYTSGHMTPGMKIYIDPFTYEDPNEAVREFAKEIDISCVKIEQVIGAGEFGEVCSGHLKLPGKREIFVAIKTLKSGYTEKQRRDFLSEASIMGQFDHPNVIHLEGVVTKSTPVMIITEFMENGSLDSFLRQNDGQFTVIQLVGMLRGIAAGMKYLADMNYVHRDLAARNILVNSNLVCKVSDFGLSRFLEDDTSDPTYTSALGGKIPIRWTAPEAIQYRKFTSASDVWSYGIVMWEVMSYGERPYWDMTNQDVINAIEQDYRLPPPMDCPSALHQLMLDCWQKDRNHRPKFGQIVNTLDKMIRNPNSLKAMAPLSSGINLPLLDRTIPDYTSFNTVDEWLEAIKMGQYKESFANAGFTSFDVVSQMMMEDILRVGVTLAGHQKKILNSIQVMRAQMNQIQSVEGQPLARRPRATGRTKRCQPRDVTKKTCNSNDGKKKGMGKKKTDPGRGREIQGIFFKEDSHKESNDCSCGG
- assay remarks: phosphorylation enrichment, bacterial display (enrichment ratio); higher = better substrate or ligand; peptides without Tyr show the background
endpoint name: phosphorylation enrichment
Form field (numeric): enter value without unit.

Some sequences with recorded phosphorylation enrichment:
> print(dat)
                      sequence.record  measured.result
1        SSSGGYGGGYG [KRT19_Y61_A60G]            0.337
2      KKMKCYHVGKV [HARS2_Y151_R150C]            0.431
3      AIGFEYSEINI [SIGLEC12_Y588_YF]              0.5
4            LNPDGYEKAYE [CPXM2_Y427]            0.816
5             PADCRYYAFPQ [GAMT_Y222]             12.2
6  PTEAQYRFIFM [PTPN11_Y511_Q506P_YF]            0.767

Please turn your attention to the following entry.
## Task Look at this sequence and give its reported phosphorylation enrichment. LDAFIYNAAVL [GRIN2A_Y730_D731N]
## Result 1.57

====

// reported SH2 binding enrichment for each item listed
- assay target: Grb2 SH2 (UniProt P62993)
- Sequence (P62993 whole entry, looked up): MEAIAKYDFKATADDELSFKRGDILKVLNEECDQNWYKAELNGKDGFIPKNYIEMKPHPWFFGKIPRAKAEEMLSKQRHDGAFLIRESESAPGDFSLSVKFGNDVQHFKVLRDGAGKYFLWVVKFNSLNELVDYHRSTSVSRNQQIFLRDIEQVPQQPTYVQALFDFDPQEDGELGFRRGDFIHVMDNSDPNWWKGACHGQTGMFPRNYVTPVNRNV
- assay remarks: SH2 binding enrichment of the phosphorylated peptide, bacterial display (enrichment ratio); higher = better substrate or ligand; peptides without Tyr show the background

> print(dat)
                    sequence.record           endpoint.name  measured.result
1  LLRFLYFFVCS [SLC34A2_Y109_G106R]  SH2 binding enrichment              2.1
2    GRRGQYVMPSE [TTC7A_Y396_L399P]  SH2 binding enrichment            0.782

## Task Entry KDGSGYISAAE [CALM1_Y100_N98S] : reported SH2 binding enrichment = ?
## Result 0.715

## Task Please give the measured SH2 binding enrichment for this sequence: SGGCSYGSGGG [KRT1_Y539_G537C]
## Result 0.782

## Task Form field: reported SH2 binding enrichment of SNNFIYTTLGV [FAM83B_Y639_K640T_YF]
## Result 0.936

## Task For DFFDLYGGQKF [PTPN11_Y66_E69Q_YF] , what is its reported SH2 binding enrichment?
## Result 0.883

## Task If you can, please state the reported SH2 binding enrichment value of ILGTYYETGSI [PAX2_Y73_R71T] .
## Result 0.998

## Task Query: SH2 binding enrichment; subject: DERQPYVHMNG [IGF1R_Y1346_A1347V]
## Result 0.729

## Task Find the recorded SH2 binding enrichment belonging to DAKAIYDFTDT [PDK1_Y136] and report it.
## Result 0.896

## Task Please look up its SH2 binding enrichment: VLTSKYCGGGG [HBA1_Y141_R142C]
## Result 0.884

## Task Fill in: SH2 binding enrichment of NVGGKYSYLKV [GRM3_Y478] is ___
## Result 1.08

## Task So what does the record say about SH2 binding enrichment for KDKLPYLYDDP [GPX2_Y125_P126L] ?
## Result 0.871

## Task Which SH2 binding enrichment value is on record for TPIYPYLLPKS [PLD2_Y580_T577I] ?
## Result 0.943

These measurements were taken from the supplement of paper PMC10065799.
